Below, each entry is listed alongside its reported absorption maximum.
# run.description: solvent given as SMILES
# measurement.context: in CN(C)C=O
Give just the number in nm; leave the unit off.

Examples with their reported absorption maximum follow.
CC[N+]1(CC)CN2C(C)=CC(C)=C(C(=O)O)C2=N1 ... 346
CC1(C)Cc2c(c3ccccc3c3nc4ccccc4nc23)O1 ... 457.04
Cc1cc(-c2ccc(-n3c4ccccc4c4ccccc43)cc2)nc(-c2ccc(-c3ccccc3)cc2)n1 ... 341

Next:
// returns reported absorption maximum for input "CSc1nc(-c2ccc(-n3c4ccccc4c4ccccc43)cc2)cc(-c2ccc(-n3c4ccccc4c4ccccc43)cc2)n1"
364
